experimentalTarget: UniProt:Q5HCZ5
protocolSummary: crystal structure
Format: binding
pKd: −log10 of the molar value.
endpoint: pKd

1. CC(C)(COP(=O)(O)OP(=O)(O)OC[C@H]1O[C@@H](n2cnc3c(N)ncnc32)[C@H](O)[C@@H]1OP(=O)(O)O)[C@@H](O)C(=O)NCCC(=O)NCCS: 3.18

====

experimentalTarget: SACOL2570 (putative galactoside O-acetyltransferase) (Staphylococcus aureus, UniProt Q5HCZ5)
Sequence (Q5HCZ5 whole entry): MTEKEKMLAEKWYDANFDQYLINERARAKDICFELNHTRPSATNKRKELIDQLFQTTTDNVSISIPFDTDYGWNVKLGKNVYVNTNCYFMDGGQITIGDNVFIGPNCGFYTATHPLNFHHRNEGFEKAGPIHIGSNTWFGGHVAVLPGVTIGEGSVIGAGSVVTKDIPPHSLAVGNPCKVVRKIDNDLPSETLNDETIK
protocolSummary: ITC, […] stoichiometry
Assay type: binding
endpoint: Kd (µM)

1. CC(=O)SCCNC(=O)CCNC(=O)[C@H](O)C(C)(C)COP(=O)(O)OP(=O)(O)OC[C@H]1O[C@@H](n2cnc3c(N)ncnc32)[C@H](O)[C@@H]1OP(=O)(O)O: 460
